# Lookup of reported log10 of solubility kinetic keyed by entry
Assay: SUPPLEMENTARY: Lyophilisation Solubility Assay (LYSA)
Assay type: physicochemical
Conditions: read-out: Kinetic_solubility
Assay readout: log10 of solubility kinetic (log10 of the value in µg/mL)

- Compound structure: "Cc1nnsc1-c1noc([C@H]2CCCCN2C(=O)COc2ccccc2)n1"
  log10 of solubility kinetic: 1.43
- Compound structure: "Cc1cc(C)cc(S(=O)(=O)c2n[nH]c3ccc(C(=O)Nc4ccc(C(=O)O)cc4)cc23)c1"
  log10 of solubility kinetic: 1.60
- Compound structure: "CC(=O)Nc1cc(-c2n[nH]c([C@H]3CCCCN3C(=O)COc3ccccc3)n2)ccc1F"
  log10 of solubility kinetic: 2.08
- Compound structure: "COc1ccc(Cl)cc1S(=O)(=O)N1CCCCc2ccc(C(=O)Nc3ccc(C(=O)O)cc3)cc21"
  log10 of solubility kinetic: 2.32
- Compound structure: "COc1ccc(Cl)cc1S(=O)(=O)c1nn(C)c2ccc(C(=O)Nc3ccc(CC(=O)O)cc3)cc12"
  log10 of solubility kinetic: 1.85
- Compound structure: "Cc1cc(C)cc(S(=O)(=O)c2nn(CC(=O)O)c3ccc(C(=O)Nc4ccccc4)cc23)c1"
  log10 of solubility kinetic: 1.85
- Compound structure: "O=C(O)c1cccc(-c2csc([C@H]3CCCCN3C(=O)COc3ccccc3)n2)c1"
  log10 of solubility kinetic: 2.54
- Compound structure: "CCOC(=O)c1cn2ccc(-c3noc([C@H]4CCCCN4C(=O)COc4ccccc4)n3)cc2n1"
  log10 of solubility kinetic: 1.34

###

Test: SUPPLEMENTARY: Lipophilicity (log D) Determination by high-throughput shake-flask
Assay type: physicochemical
Conditions: octanol/water
# Lookup of reported logD keyed by entry

- Compound structure: "COc1ccc(Cl)cc1S(=O)(=O)N1CCSc2ccc(C(=O)Nc3ccc(C(=O)O)c(F)c3)cc21"
  logD: 2.6
- Compound structure: "COc1ccc(Cl)cc1Cc1cn(C)c2ccc(C(=O)Nc3ccc(CC(=O)O)cc3)cc12"
  logD: 2.7
- Compound structure: "COc1ccc(Cl)cc1S(=O)(=O)N1CCS(=O)(=O)c2ccc(C(=O)Nc3ccc(C(=O)O)cc3)cc21"
  logD: 2.68
- Compound structure: "COc1ccc(Cl)cc1S(=O)(=O)N1C[C@H](C)c2ccc(C(=O)Nc3ccc(C(=O)O)cc3)cc21"
  logD: 3.01
- Compound structure: "O=C(COc1ccccc1)N1CCCC[C@@H]1c1noc(-c2cccc(-n3cn[nH]c3=O)c2)n1"
  logD: 2.35
- Compound structure: "COc1ccc(Cl)cc1S(=O)(=O)c1cn(CCCO)c2ccc(C(=O)Nc3ccccc3)cc12"
  logD: 3.62
- Compound structure: "COc1ccc(Cl)cc1S(=O)(=O)N1CCOc2c(Cl)cc(C(=O)Nc3ccc(CC(=O)O)cc3)cc21"
  logD: 0.88
- Compound structure: "COc1ccc(Cl)cc1S(=O)(=O)N1CCOc2ncc(C(=O)Nc3ccc(C(=O)O)cc3)cc21"
  logD: 0.2

###

Experiment: SUPPLEMENTARY: Lipophilicity (log D) Determination by high-throughput shake-flask
Type: physicochemical
Settings: octanol/water

- Compound: "O=C(O)Cc1csc(NC(=O)c2ccc3c(c2)N(S(=O)(=O)c2cccc(Cl)c2)CC3)n1"
  Comparison sign: "="
  logD: 0.34
- Compound: "COC1CCC(c2nc([C@H]3CCCCN3C(=O)COc3ccccc3)no2)CC1 (some centres undefined)"
  Comparison sign: "="
  logD: 2.83
- Compound: "COc1ccc(Cl)cc1S(=O)(=O)N1CCc2ccc(C(=O)Nc3ccc(C(=O)O)c(Cl)c3)cc21"
  Comparison sign: "="
  logD: 0.26
- Compound: "COc1ccc(Cl)cc1CN1C(=O)OC(C)(C)c2ccc(C(=O)Nc3ccc(CC(=O)O)cc3)cc21"
  Comparison sign: "="
  logD: 0.51
- Compound: "COc1ccc(Cl)cc1S(=O)(=O)c1cn(CS(C)(=O)=O)c2ccc(C(=O)Nc3ccccc3)cc12"
  Comparison sign: ">"
  logD: 3
- Compound: "O=C1CN(c2cccc(-c3nc([C@H]4CCCCN4C(=O)COc4ccccc4)no3)c2)C(=O)N1"
  Comparison sign: "="
  logD: 2.62
- Compound: "COc1ccc(Cl)cc1S(=O)(=O)c1cn(CCO)c2ccc(C(=O)Nc3ccccc3)cc12"
  Comparison sign: "="
  logD: 3.4
- Compound: "COc1ccc(Cl)cc1S(=O)(=O)N1CC(C(=O)O)Oc2ccc(C(=O)Nc3cccc(F)c3)cc21 (centres undefined)"
  Comparison sign: "="
  logD: -0.02
- Compound: "O=C(COc1ccccc1)N1CCCC[C@@H]1c1noc(C2(C(F)(F)F)CC2)n1"
  Comparison sign: "="
  logD: 3.2
